system: MS2 coat protein; assay: apparent KD of MS2 coat protein; designed switch direction (-1 OFF switch, 1 ON switch): 1; higher = weaker reporter binding; conditions: input ligand: microRNA oligo, concentration not stated
Entries annotated with measured apparent KD of MS2 coat protein

# seq_text, experimental_system, assay_result
data = [
    ("CACGUCUAGGUAGGAUAUGAGGUGCCACAGGGAAAAGCCUAUGGACAUGAGGAUCACCCAUGUCCUCAGAAGGGCCAGACGUGA [Inzala] (Eterna round: R96, puzzle: Same State NG 2)", "MS2 coat protein", "36.9 nM"),
]

Case GACUCUAGAGGAGGAUAUGCAGAGGAUCACCCUGUAGAAGGCCUCAUAAGGAGGAUAUGCAGAGGAUCACCCUGUAGAAGGCCU [pwkr ssNG DX.20] (Eterna round: R96, puzzle: Same State NG 1) , MS2 coat protein, apparent KD of MS2 coat protein recorded as 85.5 nM

Case AGCUAUUAAUCAGGAUAUGGUCACAUGAGGAUCACCCAUGUAUCGAUGAUAUGAUGUGGUCAAUACUAGAAGGGAUUGCUAACA [SameState NG2 #64] (Eterna round: R96, puzzle: Same State NG 2) , MS2 coat protein, apparent KD of MS2 coat protein recorded as 104 nM

---

test system: K4 kissing-loop RNA reporter; test: apparent KD of K4 kissing-loop reporter; higher = weaker reporter binding; settings: Eterna round: R107; input ligand: none
Returns one of y or n; y when apparent KD of K4 kissing-loop reporter is >= 100 nM.

# seq_text, label
rows = [
    ("UCCUGCUGUCUGCCACGAAAGUGGAUUGAUACCAGAGUCGAAAGACUCCCUUGGCAGCGAGUGAUGUUCGAAGCAGGUAAAUAAA [MatMod 2 - Jieux - Exclusion - Theophylline A]", "y"),
]

Data request: API: above_or_equal(metric=apparent KD of K4 kissing-loop reporter, cutoff=100 nM) for item AGAGUUUUAUGAGGAUAUGAGAUAGUUAAUGAGUGAGUUAUAGUGUAGUUUGUUUAGUGAUGUUAUUUAGAAGGCGUGAGUGAUG [ssxsmullin]
Data returned: y

Data request: API: above_or_equal(metric=apparent KD of K4 kissing-loop reporter, cutoff=100 nM) for item CACUGGGCGAGUGAUGUUCGCUCACGUGAUACCAGUGCCAUCCAACACCCUUGGCAGCAUGCGGGCAGUGAUGUUGUCCAAAGAA [Exclusion Theophylline A GF9]
Data returned: y

Data request: API: above_or_equal(metric=apparent KD of K4 kissing-loop reporter, cutoff=100 nM) for item UGUGAACAAAAGUAGAGUGGACCACUAUAGCGAGGACCGGUACGGCCGCCACUCGUACAUGAAUUCAGUGAUGUUGAAAAGAGCU [whbob_EX_Tryp_A_t13]
Data returned: y

Data request: API: above_or_equal(metric=apparent KD of K4 kissing-loop reporter, cutoff=100 nM) for item GUGGUUUACGUAGGAUAUCGAUGAUGAGUAAAUGGAGUGAUGUUCCGAGAUUGAAUAUGAGAUGAGCGAGAAGGGCGGUUUAUGC [FMN B Same State; Euporia Solution 2]
Data returned: n

Data request: API: above_or_equal(metric=apparent KD of K4 kissing-loop reporter, cutoff=100 nM) for item UGACUGGACUGAAGGAGCGCGCGAGACAAAGUCUCGAACUCUUAGUGAUGUUAAGAAAUAACGCAGGUAGGUCGCAGUCUAGUCU
Data returned: y

---

Entries annotated with measured apparent KD of K4 kissing-loop reporter
system: K4 kissing-loop RNA reporter; experiment: apparent KD of K4 kissing-loop reporter; higher = weaker reporter binding; details: Eterna round: R107; input ligand: tryptophan 2.4 mM;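 also: bound reporter read as fluorescence of individual clusters on recovered sequencing chips by microscopy, with normalized cluster intensities fitted with a binding model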
Write the number in nM without appending the unit.

Form: sequence = GGAGUAACCUGGGAUACCAGUCGGAGGCCUAGGGAUCGGAGUGAUGUUCUGGGAUGUUUCGGCCCUUGGCAGCUCUGGGUCUCCG [#2 Exclusion - Theophylline B Attempt #2 (HarryS)] ; apparent KD of K4 kissing-loop reporter = 144

Form: sequence = GAGCCAGAGGUUGCUGCGGGUUUCAGAGAUACCAGCCGUAUUGUAGGCCCUUGGCAGCUCGAGUGAUGUUCGAGCCGCCUCUGGC [Eredorxela] ; apparent KD of K4 kissing-loop reporter = 109

Form: sequence = AGAGUACGAAAGUACUCCUCUACACACUGUCGAGGACCGGUACGGCCGCCACUCGAGUUGAGUGAUGUUCGAUAGUGUGUAGAGA [Omei KL Tryp A SS C v4] ; apparent KD of K4 kissing-loop reporter = 142

Form: sequence = AAUAGGGAUAGUGAUGUUAUCCCUUAUGAUACCAGUGCCAUCGGACACCCUUGGCAGCAUACGGGCAGUGAUGUUGUUCUUGGAG [Exclusion Theophylline A GF 15] ; apparent KD of K4 kissing-loop reporter = 79.3

Form: sequence = UGACAUUGCUCAGAUACCAGACUUGAGGAUCACCCAAGUGCCAAAACGUACUAAAUAAAAGUCCCUUGGCAGCUGAGCAAUGUCU [TheoBX 13] ; apparent KD of K4 kissing-loop reporter = 54.1

Form: sequence = AGUGAUGUAUGGCGGUGUGUCACUUAAAAUCAGGAUAUAUAAACAAAUAGAAGGGAUGGCGGAGUGAUGUUCCGCCGGCCGCCAU [FMN A Exl V2] ; apparent KD of K4 kissing-loop reporter = 159

---

test system: MS2 coat protein; assay: apparent KD of MS2 coat protein; higher = weaker reporter binding; conditions: Eterna round: R107; input ligand: theophylline 20 uM
Returns one of Condition met or Condition not met; Condition met when apparent KD of MS2 coat protein is >= 0.04 µM.

Use the examples below as a reference point.
# seq_text, label
records = [
    ("ACGACGCAUAGUGAUACCAGUAGAACAUGAGGAUCACCCAUGUCUGUGGCGCACCACCUCUGCCCUUGGCAGCACUAUGCGUCAG [SSTheo B #9]", "Condition not met"),
    ("GUGUCCUAGUCGGCCGCCACUGGUACGAAUACCUUCACCCGUGUGCACAUGAGGAUCACCCAUGUCAGGACCGGGACUAGGGUGU [SSTryp B #24]", "Condition not met"),
    ("GCUACGUGCUGAAGGAGCGUGGACCUAAACAUGAGGAUCACCCAUGUCGUGUAGGCAGAUUCACAGGUAGGUCGCAGCACGUAGC [SSAB NP+V+V2 #14 Same Structure]", "Condition met"),
    ("AAACAGUCGGACAUGAGGAUCACCCAUGUGCGAGGACCGGUACGGCCGCCACUCGACAAGGGCGGUCCCGAAGCAAACAUACGCG [Enedquceor]", "Condition not met"),
    ("CCUAUGCAGUCGGCCGCCACUGAACAUGAGGAUCACCCAUGUAAUUAAAAUUAUGAUCCUGAAAUCAGGACCGGGACUGUAUAGG [Ex Tryptophan B 5]", "Condition met"),
]

Data request: API: above_or_equal(metric=apparent KD of MS2 coat protein, cutoff=0.04 µM) for item AUACAUGAGGAUCACCCAUGUAUAGUCGAUACCAGCUCAAGGAAGAGCCCUUGGCAGCGACACUGGUAUCCAUGGGUGAUACCAG [(Ms2)-(Theo)-(T)'-(M)'-(T)''_Design4]
Data returned: Condition not met

Data request: API: above_or_equal(metric=apparent KD of MS2 coat protein, cutoff=0.04 µM) for item UGUAUGGACUGAAGGAGCGCCUCAAAAUAGCUUGAGGAUCACCCAAGUAAGGCGAAAGCCGGGCAGGUAGGUCGCAGUCCAUACU [ArgBX 3]
Data returned: Condition not met

Data request: API: above_or_equal(metric=apparent KD of MS2 coat protein, cutoff=0.04 µM) for item CCGUUUUAUGGCGACAUAGGGCGGACUGAAGGAGCGGUAAAACAGCCAGGUAGGUCGCAGAGAUCCACAUGAGGAUCACCCAUGU [!0.aC]
Data returned: Condition met

Data request: API: above_or_equal(metric=apparent KD of MS2 coat protein, cutoff=0.04 µM) for item GGAUGAAACUGAAGGAGCGAGAACACAAGAAUGGGUCAAACAUGAGGAUCACCCAUGUAAUCUCAGGUAGGUCGCAGUAUCCCUU [Exclusion Arginine B GF 10]
Data returned: Condition met

Data request: API: above_or_equal(metric=apparent KD of MS2 coat protein, cutoff=0.04 µM) for item AUUCAUGAAAACAUGACAUAGGGAUCACUCCGAGGACCGGUACGGCCGCCACUCGCGAGGAGGCACAUGAGGAUCACCCAUGUUA [SS Tryp A #3]
Data returned: Condition met

Data request: API: above_or_equal(metric=apparent KD of MS2 coat protein, cutoff=0.04 µM) for item AGCCCUGUACUAGAUACCAGCUACAUGAGGAUCACCCAUGUGCGUCAAGACUGACUGUGUAGCCCUUGGCAGCUGCUCGCAUGUA [Exclusion - Theophylline B (Freestyle 2)]
Data returned: Condition not met

Data request: API: above_or_equal(metric=apparent KD of MS2 coat protein, cutoff=0.04 µM) for item UCGCGAUAGAGAAGGAGCGUCAACACCACAGAACAUGAGGAUCACCCAUGUGUUACUUUUAGACAGGUAGGUCGCUCUAGCGCUU [JR_Nu_ExcArginiB_Sub028]
Data returned: Condition not met

Data request: API: above_or_equal(metric=apparent KD of MS2 coat protein, cutoff=0.04 µM) for item AUCGUACCUGGUGAUACCAGCAAGUGAUUAUAACAUGAGGAUCACCCAUGUAAUCAGUGAUGCCCUUGGCAGCAUAAUCGGUACA [#24 Same State - Theophylline B]
Data returned: Condition not met

Data request: API: above_or_equal(metric=apparent KD of MS2 coat protein, cutoff=0.04 µM) for item UAAUGCAUGACGGCCGCCACUAGAACAUGAGGAUCACCCAUGUACGGCGGCCGUCAUGGGUGGACUAGGACCGGGUCAUGCAUAU [(Trp1)-(Ms2)-(T)'-(M)'-(Trp2)_Design5]
Data returned: Condition not met

Data request: API: above_or_equal(metric=apparent KD of MS2 coat protein, cutoff=0.04 µM) for item UUAAAUGUGACGGAUACCAGCGUGUUGUAGAACAUGAGGAUCACCCAUGUAGUGAUCAAGCGCCCUUGGCAGCUGGUAUGUUUGA [7.Z]
Data returned: Condition met
